Catalogue of binders with associated log10 of Kd
Biological target: T1, human BCMA protein (human, UniProt Q02223 1-54, limits assumed)
T1 construct: also called hBCMA; Antigen BCMA
T1 sequence (looked up): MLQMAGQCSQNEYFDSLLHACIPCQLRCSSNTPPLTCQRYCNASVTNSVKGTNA
Test: SPR (Biacore T200), antibody captured by anti-hIgG, human BCMA as analyte, 1:1 model
Transform log10 | Measure Kd | Unit nM

1A10-V2 (antibody, human IgG1, V domains shown, Humanized VHH fused to human IgG1 Fc; also called humanized antibody 1A10-V2) VH: QVQLVESGGGLVQPGGSLRLSCAASGYSSNVACMAWYRQAPGKEREWVSTIVADFGTTNYAASVKGRFTISQDNSKNTVYLQMNSLRAEDTAVYYCAATQRGGIDWCDEINYWGQGTLVTVSS	0.12

Input: Entry 1A11-V1 (antibody, human IgG1, V domains shown, Humanized VHH fused to human IgG1 Fc; also called humanized antibody 1A11-V1) VH: QVQLVESGGGLVQPGGSLRLSCAASGFTFNSACMGWFRQAPGKGREGVSRIETGYGGTVYADSVKGRFTISRDNSKNTVYLQMNSLRAEDTAVYYCAAKRSWCTPTWWHELDYNYWGQGTQVTVSS : reported log10 of Kd = ?
Output: 0.70

Input: # iterate: 1A11-Fc (antibody, human IgG1, V domains shown, also called anti-human BCMA VHH-Fc chimeric antibody 1A11-Fc) VH: QVQLVESGGGSVQAGGSLRLSCAASGVTFNSACMGWFRQAPGKEREGVARIETGYGGTVYADSVKGRFTISRDNAKNTVYLQMNSLKPEDTAMYYCAAKRSWCTPTWWHELDYNYWGQGTQVTVSS
Output: 0.60
